IC50 listing for selected compounds.
# assayed_system: DDX3 Helicase (Homo sapiens, UniProt O00571)
# Sequence (O00571 whole entry): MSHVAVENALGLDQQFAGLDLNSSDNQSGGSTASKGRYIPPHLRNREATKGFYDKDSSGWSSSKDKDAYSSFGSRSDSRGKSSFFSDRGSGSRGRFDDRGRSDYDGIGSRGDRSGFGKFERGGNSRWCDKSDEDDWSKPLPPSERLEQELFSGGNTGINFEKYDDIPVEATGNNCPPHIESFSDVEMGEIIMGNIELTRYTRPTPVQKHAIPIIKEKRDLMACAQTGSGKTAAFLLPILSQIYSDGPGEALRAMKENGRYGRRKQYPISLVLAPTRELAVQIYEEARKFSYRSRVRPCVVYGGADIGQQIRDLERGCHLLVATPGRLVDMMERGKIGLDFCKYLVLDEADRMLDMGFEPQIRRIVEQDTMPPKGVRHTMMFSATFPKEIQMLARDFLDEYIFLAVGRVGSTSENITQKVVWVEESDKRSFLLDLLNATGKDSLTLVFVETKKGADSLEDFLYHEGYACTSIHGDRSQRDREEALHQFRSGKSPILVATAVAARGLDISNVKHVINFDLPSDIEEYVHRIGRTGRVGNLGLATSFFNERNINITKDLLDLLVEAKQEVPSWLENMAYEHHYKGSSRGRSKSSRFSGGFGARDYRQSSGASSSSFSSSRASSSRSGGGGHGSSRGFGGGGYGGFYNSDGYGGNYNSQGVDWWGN
# assay_context: read-out: ID50 (μM) against DDX3 Helicase; n.a. = compound not active

# compound, IC50 (µM)
measured = [
    ("COCCc1cn(-c2ccc(NC(=O)Nc3ccccc3C)cc2)nn1 [Compound 20f]", 1),
    ("Cc1ccccc1NC(=O)Nc1cccc([N+](=O)[O-])c1 [EI01D, reference compound]", 1),
    ("CCOCc1cn(-c2cccc(S(=O)(=O)Nc3ccccc3C(F)(F)F)c2)nn1 [Compound 66d]", 0.4),
    ("O=C(Nc1ccc(-n2cc(CCOC(=O)/C=C/c3ccc4c(c3)OCO4)nn2)cc1)Nc1ccccc1C(F)(F)F", 5.1),
    ("CCCCc1cn(-c2cccc(S(=O)(=O)Nc3ccccc3C(F)(F)F)c2)nn1 [Compound 64d]", 0.4),
]

###

# protocol: Cytotoxicity in Huh7 cells, nuclei counts
# assay_context: human, DENV CC50, Huh7 cells, DENV experiment

# molecule, op, CC50 at 48 h / µM
rows = [
    ("CCCCc1cn(-c2ccc(NC(=O)Nc3ccccc3C(F)(F)F)cc2)nn1 [Compound 22a]", "=", 178),
    ("O=[N+]([O-])c1cccc(S(=O)(=O)Nc2ccccc2O)c1 [Compound 58a]", "=", 99.4),
    ("CCCCc1cn(-c2ccc(NC(=O)Nc3ccccc3C)cc2)nn1 [Compound 20a]", ">", 787),
    ("Cc1ccccc1NC(=O)Nc1ccc(-n2cc(CCC(C)C)nn2)cc1 [Compound 20b]", "=", 40.4),
]

###

# protocol: Water Solubility Assay
# Format: physicochemical
# assay_context: thermodynamic from solid, experimental aqueous solubility, read-out: LogS (converted)
solubility listing for selected compounds.

# compound, measurement_units, op, solubility
rows = [
    ("Cc1ccccc1NC(=O)Nc1ccc(-n2cc(CCC(C)C)nn2)cc1 [Compound 20b]", "µM", "<", 0.00251),
    ("CCCCc1cn(-c2ccc(NC(=O)Nc3ccccc3C(F)(F)F)cc2)nn1 [Compound 22a]", "µM", "=", 0.0372),
    ("Cc1c(Cl)cccc1NC(=O)Nc1ccc(-n2cc(CCC(C)C)nn2)cc1 [Compound 21b]", "µM", "<", 0.00251),
    ("CCCCc1cn(-c2ccc(NC(=O)Nc3ccccc3C(F)(F)F)cc2F)nn1", "µM", "=", 0.398),
    ("CCCCc1cn(-c2ccc(NC(=O)Nc3ccccc3C)cc2)nn1 [Compound 20a]", "µM", "=", 0.0891),
    ("COCCc1cn(-c2ccc(NC(=O)Nc3ccccc3C)cc2)nn1 [Compound 20f]", "µM", "=", 50.1),
    ("CC(C)CCc1cn(-c2ccc(NC(=O)Nc3ccccc3C(F)(F)F)cc2)nn1 [Compound 22b]", "µM", "<", 0.00251),
    ("CCCCn1nnc(-c2ccc(NC(=O)Nc3ccccc3C)cc2)n1", "µM", "<", 0.00316),
]

###

# Tested on: human liver microsome (HLM)
# protocol: Microsomal Stability Assay
# assay_context: human liver microsomes, 37 °C, 60 min, compound 50 μM; percentage of not metabolized compound

# compound, measurement_units, Metabolic stability (Sability %)
measured = [
    ("CCCCn1nnc(-c2ccc(NC(=O)Nc3ccccc3C)cc2)n1 [Compound 49]", "%", 95.6),
    ("CCCCc1cn(-c2ccc(NC(=O)Nc3ccccc3C(F)(F)F)cc2F)nn1 [Compound 81]", "%", 94),
    ("CCCCc1cn(-c2cccc(S(=O)(=O)Nc3ccccc3C(F)(F)F)c2)nn1 [Compound 64d]", "%", 99),
    ("CCCCc1cn(-c2ccc(NC(=O)Nc3ccccc3C)cc2)nn1 [Compound 20a]", "%", 99),
]

###

# Tested on: Lunet/HuH7 cells
# protocol: Cytotoxicity, MTT method in LUNET cells
# Format: cell-based
# assay_context: MMT method in LUNET cells; read-out: CC50 (μM) non-infected cells
# Procedure: Toxicity (CC50) was analysed in the Lunet/HuH7 cells by the addition of 10 μL of MTT (3-(4,5-dimethylthiazol-2-yl)-2,5-diphenyltetrazolium bromide) per well. After 4 h of incubation at 37° C. in a humidified atmosphere with 5% CO2, the amount of formazan produced was quantified spectrophotometrically at 550/620 nm (C. Pannecouque et al, Nature protocol 2008; 3 (3): 427-434). […] These assays were done in duplicate.

# smiles_repr, assayed_system, CC50 [µM]
rows = [
    ("CCCCCCc1cn(-c2ccc(NC(=O)Nc3ccccc3C(F)(F)F)cc2)nn1", "Lunet/HuH7 cells", 290),
]

###

# protocol: Cytotoxicity, MTT method in HuH7.5 cells
# Format: cell-based
# assay_context: human, non-infected, read-out: HCV CC50
CC50 listing for selected molecules.
endpoint_name: CC50 (µM)

# molecule, measurement_units, measurement
measured = [
    ("CCCCc1cn(-c2ccc(NC(=O)Nc3ccccc3C)cc2)nn1 [Compound 20a]", "µM", 10.1),
    ("CCCCc1cn(-c2ccc(NC(=O)Nc3ccccc3C(F)(F)F)cc2)nn1 [Compound 22a]", "µM", 94.4),
    ("Cc1ccccc1NC(=O)Nc1ccc(-n2cc(CCC(C)C)nn2)cc1 [Compound 20b]", "µM", 209),
]

###

# assayed_system: DDX3 Helicase (Homo sapiens, UniProt O00571)
# protocol: biochemical

# compound, measurement_units, IC50
rows = [
    ("CCOCc1cn(-c2ccc(NC(=O)Nc3ccccc3C)cc2)nn1 [Compound 20e]", "nM", 940),
    ("CCCCc1cn(-c2ccc(NC(=O)Nc3ccccc3C(F)(F)F)cc2F)nn1", "nM", 1000),
    ("CCCCn1nnc(-c2ccc(NC(=O)Nc3ccccc3C(F)(F)F)cc2)n1", "nM", 800),
    ("Cc1ccccc1NC(=O)Nc1ccc(-n2cc(CCC(C)C)nn2)cc1 [Compound 20b]", "nM", 500),
    ("Cc1ccccc1NC(=O)Nc1ccc(-n2cc(C(C)(C)C)nn2)cc1", "nM", 3360),
    ("CCOCc1cn(-c2ccc(NC(=O)Nc3cc(C(C)C)ccc3C)cc2)nn1 [Compound 55e]", "nM", 900),
    ("CCOCn1nnc(-c2ccc(NC(=O)Nc3ccccc3C)cc2)n1", "nM", 14000),
    ("Cc1ccccc1NC(=O)Nc1ccc(-n2cc(CN(C)Cc3ccccc3)nn2)cc1", "nM", 22800),
    ("CCCCc1cn(-c2ccc(NC(=O)Nc3cc(OC4CCCC4)ccc3C)cc2)nn1 [Compound 55h]", "nM", 100),
    ("CC(C)CCc1cn(-c2ccc(NC(=O)Nc3ccccc3C(F)(F)F)cc2)nn1 [Compound 22b]", "nM", 170),
]

###

# protocol: Water Solubility Assay
# Format: physicochemical
# assay_context: thermodynamic from solid, room temperature, 24-36 h, read-out: Aq. Solub.
solubility listing for selected compounds.

# compound, solubility
records = [
    ("Cc1c(Cl)cccc1NC(=O)Nc1ccc(-n2cc(CCC(C)C)nn2)cc1 [Compound 21b]", "< 1 ng/mL"),
    ("Cc1ccccc1NC(=O)Nc1ccc(-n2cc(CCC(C)C)nn2)cc1 [Compound 20b]", "< 1 ng/mL"),
    ("CCCCn1nnc(-c2ccc(NC(=O)Nc3ccccc3C)cc2)n1 [Compound 49]", "< 1 ng/mL"),
]

###

# protocol: Cytotoxicity, MTT method in LUNET cells
# Format: cell-based
# assay_context: human; MMT method in LUNET cells; read-out: CC50 (μM) non-infected cells
endpoint_name: CC50

# compound, measurement
records = [
    ("Cc1ccccc1NC(=O)Nc1ccc(-n2cc(C(F)(F)C(F)(F)C(F)(F)C(F)(F)F)nn2)cc1 [Compound 20c]", "> 125 µM"),
    ("CCCCc1cn(-c2ccc(NC(=O)Nc3ccccc3C(F)(F)F)cc2)nn1 [Compound 22a]", "200 µM"),
    ("CCOP(=O)(OCC)OCCc1cn(-c2ccc(NC(=O)Nc3ccccc3C)cc2)nn1", "> 150 µM"),
    ("Cc1ccccc1NC(=O)Nc1ccc(-n2cc(CN3CCOCC3)nn2)cc1 [Compound 35e]", "> 125 µM"),
]

###

# protocol: Cytotoxicity, MTT method in LUNET cells
# Assay type: cell-based
# assay_context: human; MMT method in LUNET cells; read-out: CC50 (μM) non-infected cells
CC50 listing for selected molecules.
endpoint_name: CC50

# molecule, measurement
records = [
    ("Cc1ccccc1NC(=O)Nc1ccc(-n2cc(CCN3CCOCC3)nn2)cc1 [Compound 35f]", "> 125 µM"),
    ("CC(C)CCc1cn(-c2ccc(NC(=O)Nc3cccc4cnccc34)cc2)nn1 [Compound 55f]", "> 312 µM"),
    ("Cc1ccccc1NC(=O)Nc1ccc(-n2cc(CCO)nn2)cc1 [Compound 35b]", "> 370 µM"),
]
